# credit: PubChem BioAssay AID1919005

# Tested on: 855422-203-R-J1-PDC complex spheroid growth;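 note: spheroids exposed to agents for seven days before readout; percent of DMSO vehicle control luminescence viability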
# MEASUREMENT_NOTES: Anticancer human tumor 855422-203-R-J1-PDC patient-derived bladder carcinoma cell line growth inhibition [AhR]
# SETTINGS: second compound 3.16 µM; first compound 0.0316 µM; stronger effect = lower value
We begin with a simple list: items and their reported viability, T/C.

{"COMPOUND": "COc1cccc2c1C(=O)c1c(O)c3c(c(O)c1C2=O)CC(O)(C(=O)CO)CC3OC1CC(N)C(O)C(C)O1 (configuration not stated) + CC(CO)NC(=O)c1cc(-c2ccc(Cl)cc2)nn(-c2cnn(C)c2)c1=O", "viability, T/C (%)": 32}
{"COMPOUND": "O=C(c1cc(Cc2n[nH]c(=O)c3ccccc23)ccc1F)N1CCN(C(=O)C2CC2)CC1 + Cc1ccccc1N=Nc1ccc(NC(=O)c2ccnn2C)c(C)c1", "viability, T/C (%)": 90.2}
{"COMPOUND": "Nc1ncn(C2CC(O)C(CO)O2)c(=O)n1 (configuration not stated) + Cc1cncc(-c2nc(NCCc3c[nH]c4ccccc34)c3ncn(C(C)C)c3n2)c1", "viability, T/C (%)": 79.3}
{"COMPOUND": "NS(=O)(=O)OCC1CC(n2ccc3c(NC4CCc5ccccc54)ncnc32)CC1O (configuration not stated) + CC(CO)NC(=O)c1cc(-c2ccc(Cl)cc2)nn(-c2cnn(C)c2)c1=O", "viability, T/C (%)": 87}
{"COMPOUND": "O=C(C=Cc1cccc(S(=O)(=O)Nc2ccccc2)c1)NO + CC(CO)NC(=O)c1cc(-c2ccc(Cl)cc2)nn(-c2cnn(C)c2)c1=O", "viability, T/C (%)": 83.2}
{"COMPOUND": "O=C(c1cc(Cc2n[nH]c(=O)c3ccccc23)ccc1F)N1CCN(C(=O)C2CC2)CC1 + Cc1cncc(-c2nc(NCCc3c[nH]c4ccccc34)c3ncn(C(C)C)c3n2)c1", "viability, T/C (%)": 78.6}
{"COMPOUND": "COc1cc(Nc2ncc3c(n2)-c2ccc(Cl)cc2C(c2c(F)cccc2OC)=NC3)ccc1C(=O)O + CC(CO)NC(=O)c1cc(-c2ccc(Cl)cc2)nn(-c2cnn(C)c2)c1=O", "viability, T/C (%)": 88.9}
{"COMPOUND": "O=C(c1cc(Cc2n[nH]c(=O)c3ccccc23)ccc1F)N1CCN(C(=O)C2CC2)CC1 + CC(CO)NC(=O)c1cc(-c2ccc(Cl)cc2)nn(-c2cnn(C)c2)c1=O", "viability, T/C (%)": 107}
{"COMPOUND": "Nc1ccccc1NC(=O)c1ccc(CNC(=O)OCc2cccnc2)cc1 + Cc1ccccc1N=Nc1ccc(NC(=O)c2ccnn2C)c(C)c1", "viability, T/C (%)": 97.4}
{"COMPOUND": "NS(=O)(=O)OCC1CC(n2ccc3c(NC4CCc5ccccc54)ncnc32)CC1O (configuration not stated) + Cc1cncc(-c2nc(NCCc3c[nH]c4ccccc34)c3ncn(C(C)C)c3n2)c1", "viability, T/C (%)": 80.2}
{"COMPOUND": "CC1COCCN1c1cc(-c2ccnn2C)c2ccnc(-c3ccn[nH]3)c2n1 (configuration not stated) + Cc1ccccc1N=Nc1ccc(NC(=O)c2ccnn2C)c(C)c1", "viability, T/C (%)": 87.3}
{"COMPOUND": "COc1cc(Nc2ncc3c(n2)-c2ccc(Cl)cc2C(c2c(F)cccc2OC)=NC3)ccc1C(=O)O + Cc1ccccc1N=Nc1ccc(NC(=O)c2ccnn2C)c(C)c1", "viability, T/C (%)": 105}
